The reported numbers originate from paper PMC6317155.

System Tested: aiPLA2 activity of recombinant human Prdx6 (Homo sapiens, UniProt P30041)
Sequence (P30041 whole entry): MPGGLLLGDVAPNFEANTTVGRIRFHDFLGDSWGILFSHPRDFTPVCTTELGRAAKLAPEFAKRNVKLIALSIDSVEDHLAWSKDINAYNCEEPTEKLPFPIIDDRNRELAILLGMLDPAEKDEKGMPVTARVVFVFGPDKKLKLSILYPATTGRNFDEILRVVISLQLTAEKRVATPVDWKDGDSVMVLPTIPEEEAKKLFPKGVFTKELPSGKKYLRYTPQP
Protocol Notes: aiPLA2 (PLA2) activity of recombinant human Prdx6 in vitro, 3H-DPPC liposome substrate
Format: biochemical
Test Context: deletions from 16-aa human-derived SP-A peptide; no-peptide control 92.0; one assay done in duplicate
Item-by-item account of Activity (aiPLA2 of recombinant hPrdx6), human-derived peptides
Value Kind: Activity (aiPLA2 of recombinant hPrdx6), human-derived peptides (nmol/min/mg Prot.)

INSERT INTO measurements (sequence_chain, units_symbol, observed_result) VALUES
  ('TLHDFRHQIL [10-aa N-terminal deletion of human 16-aa peptide]', 'nmol/min/mg Prot.', 31.5),
  ('TLHDFRHQI [9-aa human peptide with C-terminal aa deleted]', 'nmol/min/mg Prot.', 89.6),
  ('DEELQATLHDFRHQIL [16 aa human SP-A-derived peptide]', 'nmol/min/mg Prot.', 45.0),
  ('LHDFRHQIL [PIP-2]', 'nmol/min/mg Prot.', 29.9);
